# target-or-test-system: T1, G9a and GLP (Homo sapiens, UniProt Q96KQ7+Q9H9B1)
# T1 sequence (Q96KQ7 2-1210 limits assumed): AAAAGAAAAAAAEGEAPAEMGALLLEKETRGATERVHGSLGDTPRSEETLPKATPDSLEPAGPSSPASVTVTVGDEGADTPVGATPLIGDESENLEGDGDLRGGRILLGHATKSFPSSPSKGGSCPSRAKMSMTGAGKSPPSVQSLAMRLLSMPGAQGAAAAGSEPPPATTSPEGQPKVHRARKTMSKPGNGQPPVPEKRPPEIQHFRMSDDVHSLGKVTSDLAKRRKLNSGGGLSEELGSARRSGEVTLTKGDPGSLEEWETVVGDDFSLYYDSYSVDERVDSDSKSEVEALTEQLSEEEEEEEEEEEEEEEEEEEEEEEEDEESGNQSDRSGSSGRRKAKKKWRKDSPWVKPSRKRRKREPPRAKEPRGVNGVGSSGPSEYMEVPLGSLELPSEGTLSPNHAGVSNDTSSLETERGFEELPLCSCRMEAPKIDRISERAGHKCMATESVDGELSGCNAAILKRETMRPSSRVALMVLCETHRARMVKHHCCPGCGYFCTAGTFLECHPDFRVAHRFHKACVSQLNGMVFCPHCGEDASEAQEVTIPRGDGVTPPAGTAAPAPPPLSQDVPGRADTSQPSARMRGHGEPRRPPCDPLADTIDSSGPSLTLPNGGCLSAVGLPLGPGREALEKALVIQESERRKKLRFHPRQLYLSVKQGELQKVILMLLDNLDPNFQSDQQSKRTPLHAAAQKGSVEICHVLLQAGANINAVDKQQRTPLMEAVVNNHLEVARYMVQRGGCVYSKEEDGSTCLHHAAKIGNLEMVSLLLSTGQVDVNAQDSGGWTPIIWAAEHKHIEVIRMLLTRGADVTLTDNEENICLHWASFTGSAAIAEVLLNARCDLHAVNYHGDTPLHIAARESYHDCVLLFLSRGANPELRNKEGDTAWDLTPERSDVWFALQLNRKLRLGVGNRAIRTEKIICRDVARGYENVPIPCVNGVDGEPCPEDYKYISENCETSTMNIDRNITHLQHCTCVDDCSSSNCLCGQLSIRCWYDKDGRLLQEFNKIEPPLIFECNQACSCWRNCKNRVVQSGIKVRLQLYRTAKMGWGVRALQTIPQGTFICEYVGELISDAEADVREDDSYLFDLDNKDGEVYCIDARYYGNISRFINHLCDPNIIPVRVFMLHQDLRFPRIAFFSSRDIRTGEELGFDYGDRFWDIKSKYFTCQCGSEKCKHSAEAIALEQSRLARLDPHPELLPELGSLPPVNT
# T1 sequence (Q9H9B1 2-1298 limits assumed): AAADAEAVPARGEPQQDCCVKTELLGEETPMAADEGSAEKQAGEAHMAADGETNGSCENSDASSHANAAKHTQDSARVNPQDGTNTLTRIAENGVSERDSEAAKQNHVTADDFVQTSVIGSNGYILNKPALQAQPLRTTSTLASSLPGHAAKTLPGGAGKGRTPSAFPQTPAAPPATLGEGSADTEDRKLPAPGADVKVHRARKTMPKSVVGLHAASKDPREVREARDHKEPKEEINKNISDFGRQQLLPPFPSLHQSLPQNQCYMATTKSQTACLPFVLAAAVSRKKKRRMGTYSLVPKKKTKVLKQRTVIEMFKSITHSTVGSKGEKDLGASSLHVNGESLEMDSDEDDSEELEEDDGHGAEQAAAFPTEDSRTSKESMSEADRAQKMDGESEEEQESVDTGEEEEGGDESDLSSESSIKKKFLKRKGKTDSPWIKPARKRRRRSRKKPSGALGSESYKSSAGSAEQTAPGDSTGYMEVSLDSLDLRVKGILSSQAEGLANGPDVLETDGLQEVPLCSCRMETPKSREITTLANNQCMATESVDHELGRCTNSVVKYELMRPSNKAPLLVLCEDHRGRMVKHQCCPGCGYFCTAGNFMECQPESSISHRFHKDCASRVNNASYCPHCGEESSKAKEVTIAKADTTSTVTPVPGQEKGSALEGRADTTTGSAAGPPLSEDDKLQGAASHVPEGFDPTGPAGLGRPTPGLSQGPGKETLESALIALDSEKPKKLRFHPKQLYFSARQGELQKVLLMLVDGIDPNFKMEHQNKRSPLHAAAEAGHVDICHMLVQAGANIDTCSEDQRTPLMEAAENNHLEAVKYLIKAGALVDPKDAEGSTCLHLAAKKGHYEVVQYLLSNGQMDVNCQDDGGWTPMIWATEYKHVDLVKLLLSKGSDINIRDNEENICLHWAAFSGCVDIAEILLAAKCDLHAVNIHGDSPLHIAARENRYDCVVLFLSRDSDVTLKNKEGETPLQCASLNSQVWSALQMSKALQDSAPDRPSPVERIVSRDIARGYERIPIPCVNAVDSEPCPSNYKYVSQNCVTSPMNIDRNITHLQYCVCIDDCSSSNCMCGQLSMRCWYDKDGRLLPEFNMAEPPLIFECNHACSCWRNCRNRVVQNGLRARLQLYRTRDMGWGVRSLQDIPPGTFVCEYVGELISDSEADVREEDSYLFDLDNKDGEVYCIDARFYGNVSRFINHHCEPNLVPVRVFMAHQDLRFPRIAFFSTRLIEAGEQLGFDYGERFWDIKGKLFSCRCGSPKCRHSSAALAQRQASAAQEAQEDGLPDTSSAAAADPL
# assay-protocol: Triple SILAC pull-down after UNC0638 treatment of 293T cells, DMSO/UNC0638 ratio of protein captured by 3×MBT;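 further: mass spectrometry (Q-Exactive) SILAC quantitation, DMSO/UNC0638 ratio computed after subtracting 3×MBTD355N mutant pull-down background, only proteins with at least twofold 3×MBT over mutant signal considered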
# Type: cell-based
# Parameters: cells were treated for 24 hours with UNC0638 at 2.5 μM or DMSO vehicle control; endogenous in cells; host or cells: HEK 293T
# settings: SILAC ratio DMSO/UNC0638 of protein pulled down with 3xMBT; UNC0638 in light SILAC media
measured-quantity: Relative to UNC0638 UNC Light

Take a look at these entries with their results.
NTHL1 (protein, UniProt P78549 23-304, looked up) Endonuclease III-like protein …: GCREEPGPLRRREAAAEARKSHSPVKRPRKAQRLRVAYEGSDSEKGEGAEPLKVPVWEPQDWQQQLVNIRAMRNKKDAPVDHLGTEHCYDSSAPPKVRRYQVLLSLMLSSQTKDQVTAGAMQRLRARGLTVDSILQTDDATLGKLIYPVGFWRSKVKYIKQTSAILQQHYGGDIPASVAELVALPGVGPKMAHLAMAVAWGTVSGIAVDTHVHRIANRLRWTKKATKSPEETRAALEEWLPRELWHEINGLLVGFGQQTCLPVHPRCHACLNQALCPAAQGL = −0.12 log base 2
DRG1 (protein, UniProt Q9Y295 2-367, looked up) Developmentally-regulated …: SSTLAKIAEIEAEMARTQKNKATAHHLGLLKARLAKLRRELITPKGGGGGGPGEGFDVAKTGDARIGFVGFPSVGKSTLLSNLAGVYSEVAAYEFTTLTTVPGVIRYKGAKIQLLDLPGIIEGAKDGKGRGRQVIAVARTCNLILIVLDVLKPLGHKKIIENELEGFGIRLNSKPPNIGFKKKDKGGINLTATCPQSELDAETVKSILAEYKIHNADVTLRSDATADDLIDVVEGNRVYIPCIYVLNKIDQISIEELDIIYKVPHCVPISAHHRWNFDDLLEKIWDYLKLVRIYTKPKGQLPDYTSPVVLPYSRTTVEDFCMKIHKNLIKEFKYALVWGLSVKHNPQKVGKDHTLEDEDVIQIVKK = −0.03 log base 2
HNRNPA1 (protein, UniProt P09651 1-372, looked up) Heterogeneous nuclear …: MSKSESPKEPEQLRKLFIGGLSFETTDESLRSHFEQWGTLTDCVVMRDPNTKRSRGFGFVTYATVEEVDAAMNARPHKVDGRVVEPKRAVSREDSQRPGAHLTVKKIFVGGIKEDTEEHHLRDYFEQYGKIEVIEIMTDRGSGKKRGFAFVTFDDHDSVDKIVIQKYHTVNGHNCEVRKALSKQEMASASSSQRGRSGSGNFGGGRGGGFGGNDNFGRGGNFSGRGGFGGSRGGGGYGGSGDGYNGFGNDGGYGGGGPGYSGGSRGYGSGGQGYGNQGSGYGGSGSYDSYNNGGGGGFGGGSGSNFGGGGSYNDFGNYNNQSSNFGPMKGGNFGGRSSGPYGGGGQYFAKPRNQGGYGGSSSSSSYGSGRRF = 0.25 log base 2

Consider the additional molecule presented here.
What the record says about HNRNPA3 (protein, UniProt P51991 1-378, looked up) Heterogeneous nuclear …: MEVKPPPGRPQPDSGRRRRRRGEEGHDPKEPEQLRKLFIGGLSFETTDDSLREHFEKWGTLTDCVVMRDPQTKRSRGFGFVTYSCVEEVDAAMCARPHKVDGRVVEPKRAVSREDSVKPGAHLTVKKIFVGGIKEDTEEYNLRDYFEKYGKIETIEVMEDRQSGKKRGFAFVTFDDHDTVDKIVVQKYHTINGHNCEVKKALSKQEMQSAGSQRGRGGGSGNFMGRGGNFGGGGGNFGRGGNFGGRGGYGGGGGGSRGSYGGGDGGYNGFGGDGGNYGGGPGYSSRGGYGGGGPGYGNQGGGYGGGGGYDGYNEGGNFGGGNYGGGGNYNDFGNYSGQQQSNYGPMKGGSFGGRSSGSPYGGGYGSGGGSGGYGSRRF : Relative to UNC0638 UNC Light is 0.16 log base 2
